# Test system: MCF7
# test-name: NCI tumour cell line growth inhibition, 48 h
Active and inactive are the calls of the source. Cut-off read from the data, not from the text of the source: active = GI50 up to about 1.1 µM and inactive = higher.
Respond only with the outcome that fits, drawn from active, inactive

Please review the entries below; each comes with its answer.
| compound | label-class |
| --- | --- |
| COc1c(O)cc(O)c2c(=O)cc(-c3ccccc3)oc12 | inactive |
| CCN(CC)CCOCCn1c2c(c3ccccc31)CCCC2 | inactive |
| CCCN(CCC)C(=S)N/N=C/c1ccccn1 | active |
| CCN(CC)C1Oc2cc3c(cc2C(c2cccc(OC)c2O)C1C)OCO3 (configuration not stated) | inactive |
| CCOC(=O)/C=C/c1c[nH]c(=O)[nH]c1=O | inactive |

Query: Hi, do you know how COc1ccc(-c2c(C#N)c(S)n(NS(=O)(=O)c3ccccc3)c(=O)c2C#N)cc1 came out in this test?
Result: inactive

Query: Similarly, CC(C)=CCC[C@@H](C)C1=C(O)C(=O)C(C)=C(Nc2ccccc2Cl)C1=O ?
Result: inactive

Query: Same lookup for C[N+](C)(CCNC(=O)c1cccc2cc3ccccc3nc12)Cc1ccc([N+](=O)[O-])s1 , please.
Result: inactive

Query: Moving on to CN(C)CCNC1=Nc2ccccc2C(=S)N2CSCC12 (configuration not stated)
Result: inactive

Query: # iterate: c1ccc2c3c(c(N4CCOCC4)nc2c1)CCCC3
Result: inactive

Query: Another compound to look at: O=C1C(Cl)=C(N2C(=O)CCCC2=O)C(=O)c2ccccc21
Result: inactive

Query: Please give the result for COc1ccccc1CNCCCCCNCCCCCCCCCCNCCCCCNCc1ccccc1OC too.
Result: inactive

Query: One more compound: O=C(NCCN1CCOCC1)c1cn2c(ccc3sc4ccccc4c(=O)c32)n1
Result: inactive

Query: Similarly, COc1cc(O)c(C(=O)/C=C/c2ccc(O)cc2)cc1Oc1ccc(C(=O)/C=C/c2ccc(O)cc2)c(O)c1 ?
Result: inactive

Query: One more compound: O=C1c2c(O)cccc2Cc2cccc(O)c21
Result: active

Query: Request: CCCC/C=C1\CCC(CN2CCOCC2)C1=O (configuration not stated)
Result: inactive

Query: What do we get for CSc1cc(Cl)c(C)cc1S(=O)(=O)NC(=O)NNc1cnc2ccccc2n1 ?
Result: inactive

Query: Now try C[n+]1c(-c2ccc(/C=C/C=N\NC(=O)c3ccc(C(=O)N/N=C\C=C\c4ccc(-c5cn6ccccc6[n+]5C)cc4)cc3)cc2)cn2ccccc21 .
Result: inactive

Query: Item: Cc1ccc(C2=Nc3cccc4cccc(c34)N2)cc1
Result: inactive

Query: CCOC(=O)c1cnc(-n2[nH]c(C)c(CCO)c2=O)[nH]c1=O ?
Result: inactive

Query: Record: CN(C)c1ccc(C=c2c3ccccc3n3c2c2c([n+]3C)CCCC2)cc1
Result: active

Query: Could you do the same for COCCNc1cncc(C(N)=O)c1 , please?
Result: inactive

###

# System: M14
# test-name: NCI tumour cell line growth inhibition, 48 h
Calls of active or inactive are those of the source. No stated cut-off is given here; in the data, active = GI50 up to about 1.1 µM and inactive = higher. Where a SMILES comes first, the peptide text is derived from it. [ ]: non-standard residue; d: D form. The star is where a group is joined. mTyr = N[CH](Cc1cccc(O)c1)C(=O)O; Cbz = O=C(OCc1ccccc1)*; OBn = c1ccc(CO*)cc1
// allowed return values: class 1 = active, class 0 = inactive

| compound | study-target | label-class |
| --- | --- | --- |
| COC(=O)C(Cc1cccc(O)c1)NC(=O)C(CC(=O)OCc1ccccc1)NC(=O)OCc1ccccc1 (stereo unspecified) (Cbz-Asp(OBn)-[mTyr]-OMe; configuration not given here) | M14 | class 0 |
| CN(C)CCc1ccc(Cl)cc1Cl | M14 | class 0 |
| CC(=O)O[C@H]1CC2C(C3CCC(C(C)CCC(N)=O)[C@]31C)[C@H](OC(C)=O)C[C@@H]1CC3(CC[C@]21C)OOC1(CC[C@]2(C)C4C[C@H](OC(C)=O)[C@]5(C)C(C(C)CCC(N)=O)CCC5C4[C@H](OC(C)=O)C[C@@H]2C1)OO3 (stereo partly specified) | M14 | class 0 |
| Nc1ccc(/C=C/c2ccc3cccnc3c2)cc1 | M14 | class 0 |
| CC(C)C(N)C(=O)NC(CCC(=O)NCCCCC(N)C(=O)NCCCNc1ccc([N+](=O)[O-])c2[nH]c3ccccc3c(=O)c12)C(N)=O (stereo unspecified) | M14 | class 0 |

Query: What did this assay record as the result for COc1ccccc1NC(=O)c1nc2ccc([N+](=O)[O-])cc2nc1C ?
Result: class 0

Query: Would you kindly repeat that for COc1ccc(NC(C)=O)c(C(=O)CCNC(C)=O)c1 ?
Result: class 0

Query: Also, COc1cc(C2c3cc4c(cc3OC(NCCO)C2C)OCO4)cc(OC)c1O (stereo unspecified) please.
Result: class 0

Query: How about this compound: O=C(CSc1c2ccccc2nc2ccccc12)Nc1ccccc1-c1ccccc1NC(=O)CSc1c2ccccc2nc2ccccc12
Result: class 0
